Biological target: T1, murine RSPO3 (R&D Systems Cat. No. 4120-RS/CF) (murine, UniProt Q2TJ95 22-277, limits assumed)
T1 construct: also called mouse RSPO3
T1 sequence (looked up): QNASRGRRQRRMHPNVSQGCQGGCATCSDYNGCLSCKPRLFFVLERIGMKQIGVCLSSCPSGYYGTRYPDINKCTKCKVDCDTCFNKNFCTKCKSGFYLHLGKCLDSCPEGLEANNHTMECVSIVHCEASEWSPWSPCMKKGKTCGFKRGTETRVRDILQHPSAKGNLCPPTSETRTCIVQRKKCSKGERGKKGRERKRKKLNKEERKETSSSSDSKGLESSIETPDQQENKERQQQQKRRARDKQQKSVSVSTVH
Assay: SPR (BIAcore T200), RSPO3 immobilized, antibody injected, 25 C, 1:1 Langmuir
assay.metric: koff

Request: Please look up its koff: hu11C10.L5H1 (antibody, V domains shown, CDR graft light chain L5 with H1; also called humanized 11C10) VH: EVQLVESGGGVVQPGRSLRLSCAASGFTFSDYDMAWVRQAPGKGLEWVATIIYDGSRTYYRDSVKGRFTISRDNSKNTLYLQMNSLRAEDTAVYYCATHDKTFDYWGQGTMVTVSS VL: DIQLTQSPSSLSASVGDRVTITCRASEDIYSDLAWYQQKPGKAPKLLIYDVNSLIHGVPSRFSGSGSGTDFTLTISSLQPEDFATYYCQQYDNYPNTFGQGTKLEIK
Response: 0.00138 s⁻¹
